meta.source: patent US20260217863A1

This listing pairs sequences with measured Kd.
- system tested: RNase A (Bos taurus, UniProt P61823)
- Sequence (P61823 27-150): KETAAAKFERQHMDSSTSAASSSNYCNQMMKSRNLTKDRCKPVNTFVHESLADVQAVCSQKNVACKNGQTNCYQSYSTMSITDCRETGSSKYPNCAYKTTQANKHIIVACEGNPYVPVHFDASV
- procedure summary: SPR biosensor binding analysis with immobilized RNase A
- Set-up: Ribonuclease A (Type II-A) from bovine pancreas; purchased Sigma-Aldrich Korea; host or cells: bovine pancreas; species or system bovine
- cond: synthetic peptides, 0.37-10 μM; RNase A immobilized on Au chip; read-out: affinity constant (KD)
Where no end group is shown, it is not given here.
property label: Kd (µM)

record sequence	system tested	property label	observed value
YGPVGRVKRDD [Peptide-2]	RNase A (Bos taurus, UniProt P61823)	Kd	1.3
CGPDSDVMTDF [Peptide-1]	RNase A (Bos taurus, UniProt P61823)	Kd	1.3
DGTAKKSRKDD [Peptide-3]	RNase A (Bos taurus, UniProt P61823)	Kd	3.7
